# assay target: T1, human IL-5 with his-tag (rhIL-5-his) (human, UniProt P05113 20-134)
# T1 construct: It was expressed in HEK293 and purified from the supernatant; also called HuIL-5; recombinant human IL-5
# T1 sequence: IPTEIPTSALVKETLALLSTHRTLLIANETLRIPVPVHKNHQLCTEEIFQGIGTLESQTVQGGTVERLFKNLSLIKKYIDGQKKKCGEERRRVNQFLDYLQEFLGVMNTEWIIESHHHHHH
# protocol description: Biacore
readout kind: Kd (nM)
A number alone suffices; assume nM.

| binder | readout kind | number |
| --- | --- | --- |
| mAb1706 (antibody, V domains shown, Murine hybridoma antibody) VH: EVQLVESGGGLVQPGRSLKLSCAASGFTFSHYYMAWVRQAPKKGLEWVTSINYEGNSAYYGDSVKGRFTISRDNAKSTLYLQMDSLRSEDTATYYCATETLRESLDYWGQGVMVTVSS VL: DIQMTQSPSSMSVSLGDRVTITCRASQDIGNYLSWYQQKLGKSPKLMIHSASNLEVGVPSRFSGSRSGSDYSLTINTLESEDPGIYFCLQHKQFPRTFGGGTKLELK | Kd | 0.0383 |
| mAb1780 (antibody, V domains shown, Murine hybridoma antibody) VH: QVKLLQSGAALVKPGDSVKMSCKASDYTFTEYLIHWVKQSQGRSLEWIGYINPYSGGTVYNEKFKSKATLTVDKFSSTAYMEFRRLTFEDSAIYYCARDGGYSDPLDYWGQGVMVTVSS VL: DTVLTQSPALAVSPGERVSISCRASEGLTSYMHWYQQKPGQQPKLLIYKASNLASGVPARFSGSGSGTDFTLTIDPVEADDAATYFCQQNWNDPWTFGGGTKLELK | Kd | 0.0899 |
| mAb1773 (antibody, V domains shown, Murine hybridoma antibody) VH: EVQLQQSLAELVRPGASVTLSCTASGFNIKNTYIHWVKQRPEQGLEWIGRIDPANGDTKHGPKFQGKATITADTSSNTAYLQFSSLTSEDTAIYYCFRYGIYPDHWGQGTPLTVSS VL: QIVLTQSPALMSASPGEKVTMTCSASSSVNYIYWYQQKPRSSPKPWIYLTATLASGVPARFSGSGSGTSFSLTISRMEAEDAATYYCQQWNSYPYTFGGGTKLEIE | Kd | 0.129 |
| mAb1705 (antibody, V domains shown, Murine hybridoma antibody) VH: EVQLVESGGGLVQPGRSLKLSCTASGFTFSHYYMAWVRQAPKKGLEWVTSISYEGDITYYGDSVKGRFTISRDNAKSTLYLQMNSLRSEDTATYYCASQTLRESFDYWGQGVMVTVSS VL: DIQMTQSPSSMSVSLGDRVTITCRASQDIANYLSWYQQKIARSPKLVIYGTSNLEVGVPSRFSGSRSGSDYSLTINTLESEDTGIYFCLQDKEFPRTFGGGTRLELK | Kd | 0.0727 |

Alright, here's another binder for you.
// query Need Kd, item mAb1779 (antibody, V domains shown, Murine hybridoma antibody) VH: QVKLLQSGAALVKPGDSVKMSCKASGYTFTDYIIHWVKQSHGKSLEWIGYFNPNSGGSNYNENFKRKATLTADKSSSTAYLEFSRVTSEDSAIYYCGRRIAWDHWYFDFWGPGTMVTVSS VL: DIQMTQSPASLSASLGETVSIECLASEGISNDVAWYQQKSGRSPQLLVYAASRLQDGVPSRFSGSGSGTRYFFKISGMQPEDEADYFCQQGYKTPLTFGSGTKLEIK
// result 0.458
